Experiment: in vivo
Set-up: species or system mice
Details: mouse, po
parameter: LD50

INSERT INTO measurements (cpdsmiles, parameter, experimentalvalue) VALUES
  ('CCCCCc1oc(C)c(OC)c(=O)c1O', 'LD50', '≥ 1000 mg/kg');

* * *

Test: in vivo
Parameters: species or system rats
Conditions: rat, po
parameter: LD50

INSERT INTO results (cpdsmiles, parameter, experimentalvalue) VALUES
  ('CCCCCc1oc(C)c(OC)c(=O)c1O', 'LD50', '≥ 1000 mg/kg');
